# study_system: full-length stabilised spike trimer protein of SARS-CoV-2 virus (in-house, soluble ECD with trimeris (SARS-CoV-2, UniProt P0DTC2 14-1208; P10104 458-484)
endpoint_label: HTRF deltaF

binder	reported_measurement
IMPI-054 (antibody, V domains shown) VH: EVQLVESGGGLIQPGGSLRLSCAASGLTVSSNYMSWVRQAPGKGLEWVSIIYSGGSTYYADSVKGRFTISRDNSKNTLYLQMNSLRAEDTAVYYCARLGGYYYYGMDVWGQGTTVTVSS VL: DIQMTQSPSSLSASVGERVTITCQASQDIRNYLNWYQKKPGKAPKLLIYDSSNLETGVPSRFSGSGSGTDFTFTISSLQPEDIATYYCQQYDNLPITFGQGTRLEIK	563 deltaF
IMPI-021 (antibody, V domains shown) VH: EVQLVESGGGLIQPGGSLRLSCAASGVTVSSNYMSWVRQAPGKGLEWVSVIYSGGSTFYADSVKGRFTISRDNSKNTLYLQMNSLRAEDTAVYYCARDLSYYGMDVWGQGTTVTVSS VL: DIQLTQSPSFLSASVGDRVTITCWASQGISSYLAWYQQKPGKAPKLLIYAASTLQSGVPSKFSGSGSGTEFTLTISSLQPEDFATYYCQQLNSYPCSFGQGTKLEIK	962 deltaF
IMPI-027 (antibody, V domains shown) VH: QVQLQESGPGLVKPSQTLSLTCTVSGGSISSYGYYWNWIRQHPGKGLEWIGYIYYSGSTYYNPSLKSRVTISVDTSKNQLSLRLNSVSAADTAVYYCARDFGGNSNYFDYWGQGTLVTVSS VL: AIQLTQSPSSLSASVGDRVTITCRTSQGISSALAWYQQKPGKAPKLLIYDASSLESGVPSRFSGSGSGTDFTLTISSLQPEDFATYYCQQFNSYPLTFGGGTKVEIK	800 deltaF

Numbers sourced from patent US20250026813A1.
